molecular target: CDK6/Cyclin D3 (Homo sapiens, UniProt Q00534); assay: off-chip mobility shift assay, CDK6/Cyclin D3
Sequence (Q00534 whole entry): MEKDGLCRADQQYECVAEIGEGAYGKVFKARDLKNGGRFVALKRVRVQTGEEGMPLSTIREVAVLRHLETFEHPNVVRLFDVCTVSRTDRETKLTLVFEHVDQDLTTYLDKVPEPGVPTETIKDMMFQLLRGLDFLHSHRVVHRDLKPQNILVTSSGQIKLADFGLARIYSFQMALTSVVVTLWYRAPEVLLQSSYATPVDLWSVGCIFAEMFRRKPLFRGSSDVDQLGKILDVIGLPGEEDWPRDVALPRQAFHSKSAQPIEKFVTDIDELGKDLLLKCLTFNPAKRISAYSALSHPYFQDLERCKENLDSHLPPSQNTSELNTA
Sequence (P30281 whole entry partner): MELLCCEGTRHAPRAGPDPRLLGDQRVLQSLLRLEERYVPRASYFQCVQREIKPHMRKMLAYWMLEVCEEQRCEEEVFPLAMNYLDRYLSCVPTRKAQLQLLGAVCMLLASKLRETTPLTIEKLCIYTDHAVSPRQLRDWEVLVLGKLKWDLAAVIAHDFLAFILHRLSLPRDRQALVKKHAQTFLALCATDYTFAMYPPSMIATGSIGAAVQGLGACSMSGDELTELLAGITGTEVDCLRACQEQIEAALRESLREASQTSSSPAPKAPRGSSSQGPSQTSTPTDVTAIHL
The following compounds are listed with their measured IC50 values.
Value expressed in µM; do not type the unit.

                                   compound  result_unit  observed_result
0  CC1CCC2C(C)(C)CCCC2(C)c2c1oc1c(C=O)c(O)c(O)cc21 (centres unmarked)           µM             6.78

Give the reported IC50 for this compound. CC1CC[C@H]2C(C)(C)CCC[C@]2(C)C1=Cc1cc(O)c(O)c(C=O)c1O (some centres unmarked) 69.1
